Documented change in vivo at 10 mg/kg across a set of compounds
- Tested on: isoflurane-anesthetized SD rats
- measurement_protocol: In vivo echocardiography of systolic cardiac performance (FS, SWT, HR, LV volumes) after a single oral dose
- particulars: Rattus norvegicus, EDV (LV volume, Teichholz formula), single dose 10 mg/kg PO, ~2 hrs post-dosing, vs. vehicle, read-out: EDV % vs. VEH
quantity_measured: change in vivo at 10 mg/kg (%)

>>> print(df.to_string())
                                   compound           quantity_measured  endpoint_result
0  N#Cc1cnc2c(c1)OCC2NC(=O)CN1Cc2c(ccc(F)c2F)NC1=O (single isomer, unassigned)  change in vivo at 10 mg/kg               22
1  C[C@@H](NC(=O)CN1Cc2c(ccc(F)c2F)NC1=O)c1ncc(C#N)cc1F  change in vivo at 10 mg/kg               -3
2  Cc1nc(C#N)cnc1C(C)NC(=O)CN1Cc2c(ccc(F)c2F)NC1=O (single isomer, unassigned)  change in vivo at 10 mg/kg               70
3  [2H]C1([2H])c2c(ccc(F)c2F)NC(=O)N1CC(=O)N[C@@H](C)c1ncc(C#N)cc1F  change in vivo at 10 mg/kg               82
4  C[C@@H](NC(=O)CN1C(=O)Nc2ccc(F)c(F)c2C1O)c1ncc(C#N)cc1F (stereo partly shown)  change in vivo at 10 mg/kg               -2
5  C[C@H](NC(=O)CN1Cc2c(ccc(F)c2F)NC1=O)c1ncc(C#N)cc1F  change in vivo at 10 mg/kg               21
6  [2H]C1([2H])c2c(ccc(F)c2F)NC(=O)N1CC(=O)N[C@H](C)c1ncc(C#N)cc1F  change in vivo at 10 mg/kg               -6
